Measured values drawn from ChEMBL document CHEMBL2218924 for this set.

Reported residual activity values follow for various compounds
Biological target: Serine/threonine-protein kinase PAK 6 (Homo sapiens)
Conditions: at 1 µM

compound: COc1cc2ncnc(Nc3ccc(O)c(Br)c3)c2cc1OC
assay-target: Serine/threonine-protein kinase PAK 6 (Homo sapiens)
residual activity, %: 123

compound: COc1cc2ncnc(Nc3ccc(NC(=O)c4ccccc4)cc3)c2cc1OC
assay-target: Serine/threonine-protein kinase PAK 6 (Homo sapiens)
residual activity, %: 108

compound: Oc1n[nH]c2nnc(-c3c(-c4ccccc4)nn4ccccc34)cc12
assay-target: Serine/threonine-protein kinase PAK 6 (Homo sapiens)
residual activity, %: 98

compound: O=c1cc(-c2cccc3c2Sc2ccccc2S3)oc(N2CCOCC2)c1
assay-target: Serine/threonine-protein kinase PAK 6 (Homo sapiens)
residual activity, %: 89

compound: O=C(Nc1cccc(Nc2cc(Nc3cccc(C(F)(F)F)c3)ncn2)c1)C1CC1
assay-target: Serine/threonine-protein kinase PAK 6 (Homo sapiens)
residual activity, %: 104

compound: CC(C)n1cnc2/c(=N/c3cccc(Cl)c3)nc(NCCO)[nH]c21
assay-target: Serine/threonine-protein kinase PAK 6 (Homo sapiens)
residual activity, %: 43

compound: O=C1Nc2cc(Br)ccc2/C1=C1/Nc2ccccc2/C1=N\O
assay-target: Serine/threonine-protein kinase PAK 6 (Homo sapiens)
residual activity, %: 51

compound: COc1ccc(OC)c2c(=S)c3ccccc3[nH]c12
assay-target: Serine/threonine-protein kinase PAK 6 (Homo sapiens)
residual activity, %: 95

compound: CC[n+]1c(/C=C/N(C)c2ccccc2)n(-c2ccccc2)c2ccc(-c3nc4ccccc4s3)cc21
assay-target: Serine/threonine-protein kinase PAK 6 (Homo sapiens)
residual activity, %: 102

compound: COc1cc2ncnc(Nc3ccc(Oc4ccccc4)cc3)c2cc1OC
assay-target: Serine/threonine-protein kinase PAK 6 (Homo sapiens)
residual activity, %: 98

compound: O=[N+]([O-])c1ccc(-c2nc(-c3ccc(F)cc3)c(-c3ccncc3)[nH]2)cc1
assay-target: Serine/threonine-protein kinase PAK 6 (Homo sapiens)
residual activity, %: 102

compound: O=C1Nc2ccccc2/C1=C1/Nc2ccccc2/C1=N\OCCC(O)CO (stereo not given)
assay-target: Serine/threonine-protein kinase PAK 6 (Homo sapiens)
residual activity, %: 81

compound: N#CC(C#N)=C(N)/C(C#N)=C/c1ccc(O)cc1
assay-target: Serine/threonine-protein kinase PAK 6 (Homo sapiens)
residual activity, %: 100

compound: COc1cccc(-c2cc(=O)c3ccccc3o2)c1N
assay-target: Serine/threonine-protein kinase PAK 6 (Homo sapiens)
residual activity, %: 96

compound: Oc1c2ccccc2c2c3c(cccc13)N=N2
assay-target: Serine/threonine-protein kinase PAK 6 (Homo sapiens)
residual activity, %: 91

compound: O=C1NC(=O)/C(=C/c2ccc3c(c2)OC(F)(F)O3)S1
assay-target: Serine/threonine-protein kinase PAK 6 (Homo sapiens)
residual activity, %: 81

compound: Cc1cc(Nc2nc(-c3ccccc3)nc3ccccc23)n[nH]1
assay-target: Serine/threonine-protein kinase PAK 6 (Homo sapiens)
residual activity, %: 47

compound: CC(C)n1cnc2c(NCc3ccccc3)nc(NCCCO)nc21
assay-target: Serine/threonine-protein kinase PAK 6 (Homo sapiens)
residual activity, %: 95

compound: O=C1NC(=O)c2cc(Nc3ccc(F)cc3)c(Nc3ccc(F)cc3)cc21
assay-target: Serine/threonine-protein kinase PAK 6 (Homo sapiens)
residual activity, %: 100

compound: CCN(CC)CCCCN1c2ccccc2Oc2ccc(Cl)cc21
assay-target: Serine/threonine-protein kinase PAK 6 (Homo sapiens)
residual activity, %: 104

compound: O=c1c2ccccc2[nH]c(=S)n1CCN1CCC(=C(c2ccc(F)cc2)c2ccc(F)cc2)CC1
assay-target: Serine/threonine-protein kinase PAK 6 (Homo sapiens)
residual activity, %: 82

compound: Nc1ccc2ncnc(NCCc3ccc(Oc4ccccc4)cc3)c2c1
assay-target: Serine/threonine-protein kinase PAK 6 (Homo sapiens)
residual activity, %: 95

compound: O=C1NC(=O)/C(=C\c2ccc3nccnc3c2)S1
assay-target: Serine/threonine-protein kinase PAK 6 (Homo sapiens)
residual activity, %: 92

compound: N#Cc1cnc2cnc(NCc3cccnc3)cc2c1Nc1ccc(F)c(Cl)c1
assay-target: Serine/threonine-protein kinase PAK 6 (Homo sapiens)
residual activity, %: 2

compound: N#CCCc1ccc2c(c1)-c1[nH]c3ccc([N+](=O)[O-])cc3c1CC(=O)N2
assay-target: Serine/threonine-protein kinase PAK 6 (Homo sapiens)
residual activity, %: 55

compound: Cc1cncc2cccc(S(=O)(=O)N3CCCN(C(=O)CN)C[C@H]3C)c12
assay-target: Serine/threonine-protein kinase PAK 6 (Homo sapiens)
residual activity, %: 88

compound: Cc1nc(-c2ccccc2)c(-c2ccncc2)o1
assay-target: Serine/threonine-protein kinase PAK 6 (Homo sapiens)
residual activity, %: 109

compound: Cn1nc2c3c(cccc31)C(=O)c1ccccc1-2
assay-target: Serine/threonine-protein kinase PAK 6 (Homo sapiens)
residual activity, %: 108

compound: O=Nc1c(-c2c(O)[nH]c3ccccc23)[nH]c2ccccc12
assay-target: Serine/threonine-protein kinase PAK 6 (Homo sapiens)
residual activity, %: 63

compound: COc1ccc(C(=O)Nc2sc3c(c2C(N)=O)CCCC3)cc1OC
assay-target: Serine/threonine-protein kinase PAK 6 (Homo sapiens)
residual activity, %: 95

compound: O=C1NC(=O)c2c1c1c3ccccc3[nH]c1c1[nH]c3cc(Br)ccc3c21
assay-target: Serine/threonine-protein kinase PAK 6 (Homo sapiens)
residual activity, %: 77

compound: CC#CC(=O)Nc1cc2c(Nc3ccc(F)c(Cl)c3)ncnc2cn1
assay-target: Serine/threonine-protein kinase PAK 6 (Homo sapiens)
residual activity, %: 102

compound: O=C1c2ccccc2-[n+]2ccc3c([nH]c4ccccc43)c21
assay-target: Serine/threonine-protein kinase PAK 6 (Homo sapiens)
residual activity, %: 102

compound: CCN(CC)C(=O)c1ccc(Nc2nc(OCC3CCCCC3)c3nc[nH]c3n2)cc1
assay-target: Serine/threonine-protein kinase PAK 6 (Homo sapiens)
residual activity, %: 58

compound: N#C/C(=C(\N)Sc1ccc(N)cc1)c1ccccc1C(F)(F)F
assay-target: Serine/threonine-protein kinase PAK 6 (Homo sapiens)
residual activity, %: 96

compound: Nc1cccc(-c2cc3c(Oc4cccc(O)c4)ncnc3[nH]2)c1
assay-target: Serine/threonine-protein kinase PAK 6 (Homo sapiens)
residual activity, %: 86

compound: Cn1cc(/C=C2\C(=O)Nc3ccc(S(N)(=O)=O)cc32)c2ccccc21
assay-target: Serine/threonine-protein kinase PAK 6 (Homo sapiens)
residual activity, %: 46

compound: C[C@@H](N)[C@H]1CC[C@H](C(=O)Nc2ccncc2)CC1
assay-target: Serine/threonine-protein kinase PAK 6 (Homo sapiens)
residual activity, %: 117

compound: CO[C@H]1C[C@@H]2CC[C@@H](C)[C@@](O)(O2)C(=O)C(=O)N2CCCC[C@H]2C(=O)O[C@H]([C@H](C)C[C@@H]2CC[C@@H](O)[C@H](OC)C2)CC(=O)[C@H](C)/C=C(\C)[C@@H](O)[C@@H](OC)C(=O)[C@H](C)C[C@H](C)/C=C/C=C/C=C/1C
assay-target: Serine/threonine-protein kinase PAK 6 (Homo sapiens)
residual activity, %: 106

compound: CC(=O)c1ccc(N2CCOCC2)cc1O
assay-target: Serine/threonine-protein kinase PAK 6 (Homo sapiens)
residual activity, %: 95

* * *

Molecular target: Ribosomal protein S6 kinase alpha-5 (Homo sapiens) (UniProt O75582)
Sequence (O75582 whole entry, looked up): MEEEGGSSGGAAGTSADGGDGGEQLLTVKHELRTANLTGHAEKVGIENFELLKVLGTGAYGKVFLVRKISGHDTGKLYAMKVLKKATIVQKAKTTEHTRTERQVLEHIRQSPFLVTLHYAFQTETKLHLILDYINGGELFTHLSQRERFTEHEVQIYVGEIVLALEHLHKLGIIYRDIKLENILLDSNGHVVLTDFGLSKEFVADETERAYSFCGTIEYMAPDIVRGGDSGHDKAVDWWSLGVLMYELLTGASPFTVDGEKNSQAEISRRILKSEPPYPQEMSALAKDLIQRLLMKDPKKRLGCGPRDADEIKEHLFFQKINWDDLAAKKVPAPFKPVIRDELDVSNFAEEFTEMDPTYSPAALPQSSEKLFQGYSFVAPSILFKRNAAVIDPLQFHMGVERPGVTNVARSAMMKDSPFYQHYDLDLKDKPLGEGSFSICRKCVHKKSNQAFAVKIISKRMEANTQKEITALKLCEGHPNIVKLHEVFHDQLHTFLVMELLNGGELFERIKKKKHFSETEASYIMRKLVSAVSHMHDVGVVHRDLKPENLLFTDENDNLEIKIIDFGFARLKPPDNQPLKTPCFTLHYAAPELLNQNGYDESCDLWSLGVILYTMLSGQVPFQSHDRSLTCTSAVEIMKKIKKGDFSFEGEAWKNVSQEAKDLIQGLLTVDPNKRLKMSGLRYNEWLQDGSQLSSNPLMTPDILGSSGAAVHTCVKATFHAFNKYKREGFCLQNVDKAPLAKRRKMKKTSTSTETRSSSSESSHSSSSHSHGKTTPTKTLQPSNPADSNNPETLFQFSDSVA
Conditions: at 1 µM
recorded-endpoint: residual activity

compound: CC(=O)O/N=C1\C(=C2\C(=O)Nc3cc(Br)ccc32)Nc2ccccc21
obs-value: 99%

compound: O=C1Nc2ccccc2/C1=C1/Nc2ccccc2/C1=N\OCCC(O)CO (centres undefined)
obs-value: 47%

compound: COc1cc2ncnc(Nc3ccc(O)c(Br)c3)c2cc1OC
obs-value: 117%

compound: Cn1cc(/C=C2\C(=O)Nc3ccc(S(N)(=O)=O)cc32)c2ccccc21
obs-value: 86%

* * *

Biological target: Serine/threonine-protein kinase SIK1 (Homo sapiens)
Details: at 1 µM
Lab note: compare residual activity against 90%. Equal or greater, write Satisfied. Smaller, write Not satisfied.

structure: O=C1NC(=O)c2c1c1c3ccccc3[nH]c1c1[nH]c3cc(Br)ccc3c21
assay-target: Serine/threonine-protein kinase SIK1 (Homo sapiens)
label-value: Satisfied
--
structure: O=C(Nc1cccc(Nc2cc(Nc3cccc(C(F)(F)F)c3)ncn2)c1)C1CC1
assay-target: Serine/threonine-protein kinase SIK1 (Homo sapiens)
label-value: Satisfied
--
structure: CO[C@H]1[C@@H](OC)C[C@H](C)[C@@H](OC)C2=CC(=O)C=C(NC(=O)/C(C)=C/C=C/[C@H](OC)[C@@H](OC(N)=O)/C(C)=C/[C@@H]1C)C2=O
assay-target: Serine/threonine-protein kinase SIK1 (Homo sapiens)
label-value: Not satisfied
--
structure: O=[N+]([O-])c1ccc(-c2nc(-c3ccc(F)cc3)c(-c3ccncc3)[nH]2)cc1
assay-target: Serine/threonine-protein kinase SIK1 (Homo sapiens)
label-value: Satisfied
--
structure: Nc1ccc2ncnc(NCCc3ccc(Oc4ccccc4)cc3)c2c1
assay-target: Serine/threonine-protein kinase SIK1 (Homo sapiens)
label-value: Satisfied
--
structure: O=C(Nc1cccc(Nc2nccc(Nc3cccc(C(F)(F)F)c3)n2)c1)C1CC1
assay-target: Serine/threonine-protein kinase SIK1 (Homo sapiens)
label-value: Not satisfied
--
structure: CN(C)CCCn1cc(C2=C(c3c[nH]c4ccccc34)C(=O)NC2=O)c2ccccc21
assay-target: Serine/threonine-protein kinase SIK1 (Homo sapiens)
label-value: Not satisfied
--
structure: Cc1ccc(NC2=CC(=O)c3sc(C)nc3C2=O)cc1
assay-target: Serine/threonine-protein kinase SIK1 (Homo sapiens)
label-value: Satisfied
--
structure: CC#CC(=O)Nc1cc2c(Nc3ccc(F)c(Cl)c3)ncnc2cn1
assay-target: Serine/threonine-protein kinase SIK1 (Homo sapiens)
label-value: Not satisfied
--
structure: O=C(O)c1ccc2c3c1cccc3c(=O)n1c3ccccc3nc21
assay-target: Serine/threonine-protein kinase SIK1 (Homo sapiens)
label-value: Satisfied
--
structure: CCN(CC)C(=O)c1ccc(Nc2nc(OCC3CCCCC3)c3nc[nH]c3n2)cc1
assay-target: Serine/threonine-protein kinase SIK1 (Homo sapiens)
label-value: Not satisfied
--
structure: c1ccc2c(-c3ccncc3)c[nH]c2c1
assay-target: Serine/threonine-protein kinase SIK1 (Homo sapiens)
label-value: Not satisfied
--
structure: CO[C@@H]1[C@H](N(C)C(=O)c2ccccc2)C[C@H]2O[C@]1(C)n1c3ccccc3c3c4c(c5c6ccccc6n2c5c31)C(=O)NC4
assay-target: Serine/threonine-protein kinase SIK1 (Homo sapiens)
label-value: Not satisfied
--
structure: Cc1ccc(S(=O)(=O)/C=C/C#N)cc1
assay-target: Serine/threonine-protein kinase SIK1 (Homo sapiens)
label-value: Not satisfied
--
structure: CNc1cc2c(Nc3cccc(Br)c3)ncnc2cn1
assay-target: Serine/threonine-protein kinase SIK1 (Homo sapiens)
label-value: Not satisfied
--
structure: COc1cc2ncnc(Nc3ccc(Oc4ccccc4)cc3)c2cc1OC
assay-target: Serine/threonine-protein kinase SIK1 (Homo sapiens)
label-value: Not satisfied
--
structure: Oc1c2ccccc2c2c3c(cccc13)N=N2
assay-target: Serine/threonine-protein kinase SIK1 (Homo sapiens)
label-value: Satisfied
--
structure: Oc1ccc(-c2nc(-c3ccc(F)cc3)c(-c3ccncc3)[nH]2)cc1
assay-target: Serine/threonine-protein kinase SIK1 (Homo sapiens)
label-value: Satisfied
--
structure: Nc1nc(Nc2ccc(S(N)(=O)=O)cc2)nn1C(=S)Nc1c(F)cccc1F
assay-target: Serine/threonine-protein kinase SIK1 (Homo sapiens)
label-value: Not satisfied
--
structure: O=C1c2ccccc2-[n+]2ccc3c([nH]c4ccccc43)c21
assay-target: Serine/threonine-protein kinase SIK1 (Homo sapiens)
label-value: Satisfied
--
structure: Cc1nc2cc3nc(-c4cccs4)cnc3cc2n1C
assay-target: Serine/threonine-protein kinase SIK1 (Homo sapiens)
label-value: Satisfied
--
structure: O=C1Nc2cc(Br)ccc2/C1=C1/Nc2ccccc2/C1=N\O
assay-target: Serine/threonine-protein kinase SIK1 (Homo sapiens)
label-value: Not satisfied
--
structure: Cn1cc(/C=C2\C(=O)Nc3ccc(S(N)(=O)=O)cc32)c2ccccc21
assay-target: Serine/threonine-protein kinase SIK1 (Homo sapiens)
label-value: Not satisfied
--
structure: O=C1Nc2ccc(Br)cc2/C1=C\c1cc2c([nH]1)CCCC2
assay-target: Serine/threonine-protein kinase SIK1 (Homo sapiens)
label-value: Satisfied
--
structure: COc1ccc(S(=O)(=O)N(CCO)c2ccccc2CN(C)C/C=C/c2ccc(Cl)cc2)cc1
assay-target: Serine/threonine-protein kinase SIK1 (Homo sapiens)
label-value: Satisfied
--
structure: COc1ccc(OC)c2c(=S)c3ccccc3[nH]c12
assay-target: Serine/threonine-protein kinase SIK1 (Homo sapiens)
label-value: Satisfied
--
structure: CCC(=O)Nc1ccc2ncnc(Nc3cccc(Br)c3)c2c1
assay-target: Serine/threonine-protein kinase SIK1 (Homo sapiens)
label-value: Not satisfied
--
structure: CCN(CC)CCCCN1c2ccccc2Oc2ccc(Cl)cc21
assay-target: Serine/threonine-protein kinase SIK1 (Homo sapiens)
label-value: Satisfied
--
structure: COc1cc2ncnc(Nc3ccc(NC(=O)c4ccccc4)cc3)c2cc1OC
assay-target: Serine/threonine-protein kinase SIK1 (Homo sapiens)
label-value: Satisfied
--
structure: Cn1cnc2cc3c(Nc4cccc(Br)c4)ncnc3cc21
assay-target: Serine/threonine-protein kinase SIK1 (Homo sapiens)
label-value: Not satisfied
--
structure: Cc1cc2ncc(-c3ccccc3)nc2cc1C
assay-target: Serine/threonine-protein kinase SIK1 (Homo sapiens)
label-value: Not satisfied
--
structure: Cc1cncc2cccc(S(=O)(=O)N3CCCN(C(=O)CN)C[C@H]3C)c12
assay-target: Serine/threonine-protein kinase SIK1 (Homo sapiens)
label-value: Not satisfied
--
structure: CC[n+]1c(/C=C/N(C)c2ccccc2)n(-c2ccccc2)c2ccc(-c3nc4ccccc4s3)cc21
assay-target: Serine/threonine-protein kinase SIK1 (Homo sapiens)
label-value: Satisfied
--
structure: CO[C@H]1C[C@@H]2CC[C@@H](C)[C@@](O)(O2)C(=O)C(=O)N2CCCC[C@H]2C(=O)O[C@H]([C@H](C)C[C@@H]2CC[C@@H](O)[C@H](OC)C2)CC(=O)[C@H](C)/C=C(\C)[C@@H](O)[C@@H](OC)C(=O)[C@H](C)C[C@H](C)/C=C/C=C/C=C/1C
assay-target: Serine/threonine-protein kinase SIK1 (Homo sapiens)
label-value: Satisfied
--
structure: CC(C)n1cnc2c(NCc3ccccc3)nc(NCCCO)nc21
assay-target: Serine/threonine-protein kinase SIK1 (Homo sapiens)
label-value: Satisfied
